Organism: Homo sapiens
experimental-protocol: Liver toxicity in human assessed as induction of drug-induced liver injury by measuring verified drug-induced liver injury concern status
Starred links: 1 amine or outer side, 2 acyl side, 3 side chain; linkers in the order of their positions; H or OH if unused. Positions of bridges follow the written chain, without caps; N, C: chain ends. Non-standard residues stand in square brackets, D forms with d. Residues, ends and D or L forms follow the SMILES beside them. *: point of attachment. hTyr(3S-OH,4S-OH,3'-OSO3H) = N[C@H](C(=O)O)[C@H](O)[C@@H](O)c1ccc(O)c(OS(=O)(=O)O)c1; Orn(4R-OH,5R-OH) = O=C([C@H](C[C@@H](O)[C@@H](O)N[*:3])N[*:1])[*:2]; Pro(3S-OH,4S-Me) = C[C@H]1CN[C@H](C(=O)O)[C@H]1O; X1 = CCCCCOc1ccc(-c2cc(-c3ccc(C(=O)*)cc3)no2)cc1; Gln(3R-OH) = NC(=O)C[C@@H](O)[C@H](N)C(=O)O; Hyp = O=C(O)[C@@H]1C[C@@H](O)CN1
readout-name: DILI_Concern

These solved cases illustrate the format of a correct answer.
- compound: "O=C1Nc2ccc(Cl)cc2C(c2ccccc2)=NC1O (stereo not drawn)"
  DILI_Concern: "Ambiguous-Dili-Concern"
- compound: "CCCCCOc1ccc(-c2cc(-c3ccc(C(=O)N[C@H]4C[C@@H](O)[C@@H](O)NC(=O)[C@@H]5[C@@H](O)[C@@H](C)CN5C(=O)[C@H]([C@H](O)CC(N)=O)NC(=O)[C@H]([C@H](O)[C@@H](O)c5ccc(O)c(OS(=O)(=O)O)c5)NC(=O)[C@@H]5C[C@@H](O)CN5C(=O)[C@H]([C@@H](C)O)NC4=O)cc3)no2)cc1 [MICAFUNGIN] (X1-[Orn(4R-OH,5R-OH)]T[Hyp][hTyr(3S-OH,4S-OH,3'-OSO3H)][Gln(3R-OH)][Pro(3S-OH,4S-Me)]; lactam 1-C)"
  DILI_Concern: "Most-Dili-Concern"
- compound: "CC1COc2c(N3CCN(C)CC3)c(F)cc3c(=O)c(C(=O)O)cn1c23 (stereo not drawn)"
  DILI_Concern: "Less-Dili-Concern"
- compound: "Nc1ccc(C(=O)NCC(=O)O)cc1"
  DILI_Concern: "No-Dili-Concern"
- compound: "C=CC1=C(C(=O)O)N2C(=O)[C@@H](NC(=O)/C(=N\\O)c3csc(N)n3)[C@H]2SC1"
  DILI_Concern: "Less-Dili-Concern"

Give the value of DILI_Concern reported for the following: Cc1ccccc1N1C(=O)c2cc(S(N)(=O)=O)c(Cl)cc2NC1C (stereo not drawn)
Ambiguous-Dili-Concern

Give the value of DILI_Concern reported for the following: C[C@]12CCC(=O)C=C1CC[C@H]1[C@@H]3CC[C@](O)(C(=O)CO)[C@@]3(C)C[C@H](O)[C@@]12F
No-Dili-Concern

Give the value of DILI_Concern reported for the following: CC1=C(C(=O)O)N2C(=O)[C@@H](NC(=O)[C@H](N)c3ccccc3)[C@H]2SC1 [CEPHALEXIN ANHYDROUS]
Less-Dili-Concern

Give the value of DILI_Concern reported for the following: CC(=O)Oc1cc(C(C)C)c(OCCN(C)C)cc1C
Most-Dili-Concern

Give the value of DILI_Concern reported for the following: CC[C@@H](CO)NC(=O)[C@@H]1C=C2c3cccc4c3c(cn4C)C[C@H]2N(C)C1 [METHYSERGIDE]
No-Dili-Concern

Give the value of DILI_Concern reported for the following: CC(=O)/N=c1/sc(S(N)(=O)=O)nn1C [METHAZOLAMIDE]
Less-Dili-Concern

Give the value of DILI_Concern reported for the following: CN1C(CCl)Nc2cc(Cl)c(S(N)(=O)=O)cc2S1(=O)=O (stereo not drawn) [METHYCLOTHIAZIDE]
Ambiguous-Dili-Concern

Give the value of DILI_Concern reported for the following: C[C@]12CCC(=O)C=C1CC[C@@H]1[C@@H]2[C@@H](O)C[C@@]2(C)[C@H]1CC[C@]2(O)C(=O)CO [HYDROCORTISONE]
No-Dili-Concern

Give the value of DILI_Concern reported for the following: CN(C)[C@@H]1C(O)=C(C(N)=O)C(=O)[C@@]2(O)C(O)=C3C(=O)c4c(O)cccc4[C@@](C)(O)[C@H]3[C@H](O)[C@@H]12
Ambiguous-Dili-Concern

Give the value of DILI_Concern reported for the following: COc1ccc2c(C(=O)c3ccc(Cl)cc3)c(C)n(CC(=O)O)c2c1
Most-Dili-Concern

Give the value of DILI_Concern reported for the following: CN(C)CCC(c1ccc(Cl)cc1)c1ccccn1 (stereo not drawn)
No-Dili-Concern

Give the value of DILI_Concern reported for the following: COc1cc(NC(C)CCCN)c2ncccc2c1 (stereo not drawn)
No-Dili-Concern

Give the value of DILI_Concern reported for the following: CC(C)c1c(C(=O)Nc2ccccc2)c(-c2ccccc2)c(-c2ccc(F)cc2)n1CC[C@@H](O)C[C@@H](O)CC(=O)O
Most-Dili-Concern

Give the value of DILI_Concern reported for the following: O=C(O)CN(CCN(CC(=O)O)CC(=O)O)CCN(CC(=O)O)CC(=O)O
No-Dili-Concern

Give the value of DILI_Concern reported for the following: COc1ccc2[nH]c([S+]([O-])Cc3ncc(C)c(OC)c3C)nc2c1 (stereo not drawn)
Less-Dili-Concern

Give the value of DILI_Concern reported for the following: O=C(Oc1ccccc1C(=O)O)c1ccccc1O [SALSALATE]
Less-Dili-Concern

Give the value of DILI_Concern reported for the following: CN(Cc1cnc2nc(N)nc(N)c2n1)c1ccc(C(=O)N[C@@H](CCC(=O)O)C(=O)O)cc1 [METHOTREXATE]
Most-Dili-Concern

Give the value of DILI_Concern reported for the following: Cc1nnc2n1-c1ccc(Cl)cc1C(c1ccccc1Cl)=NC2
Ambiguous-Dili-Concern

----------
Organism: Homo sapiens
experimental-protocol: Liver toxicity in human assessed as induction of drug-induced liver injury by measuring severity class index
Kindly state DILI_severity_class for each of the entries shown.
Lab note: jot down the number only; don't add units.

Give the value of DILI_severity_class reported for the following: CN(C)CCC=C1c2ccccc2C=Cc2ccccc21
5

Give the value of DILI_severity_class reported for the following: CCC1=C(C)CN(C(=O)NCCc2ccc(S(=O)(=O)NC(=O)N[C@H]3CC[C@H](C)CC3)cc2)C1=O [GLIMEPIRIDE]
7

Give the value of DILI_severity_class reported for the following: CC(=O)/N=c1/sc(S(N)(=O)=O)nn1C [METHAZOLAMIDE]
7

----------
Species: Homo sapiens
experimental-protocol: Liver toxicity in human assessed as induction of drug-induced liver injury by measuring verified drug-induced liver injury concern status
Non-standard residues stand in square brackets, D forms with d. Residues, ends and D or L forms follow the SMILES beside them. d(hArg(Et2)) = CCN=C(NCC)NCCCC[C@@H](N)C(=O)O; hArg(Et2) = CCN=C(NCC)NCCCC[C@H](N)C(=O)O; dPhe(4-Cl) = N[C@H](Cc1ccc(Cl)cc1)C(=O)O; d2Nal = N[C@H](Cc1ccc2ccccc2c1)C(=O)O; d3Pal = N[C@H](Cc1cccnc1)C(=O)O
readout-name: DILI_Concern

These solved cases illustrate the format of a correct answer.
- compound: "O=C(O[C@@H]1C[C@@H]2C[C@H]3C[C@H](C1)N2CC3=O)c1c[nH]c2ccccc12"
  DILI_Concern: "Ambiguous-Dili-Concern"
- compound: "CCN1CCN(C(=O)N[C@@H](C(=O)N[C@@H]2C(=O)N3C(C(=O)O)=C(CSc4nnnn4C)CS[C@H]23)c2ccc(O)cc2)C(=O)C1=O"
  DILI_Concern: "Less-Dili-Concern"
- compound: "CN1C2CCCC1CC(NC(=O)c1nn(C)c3ccccc13)C2 (configuration not stated)"
  DILI_Concern: "Ambiguous-Dili-Concern"
- compound: "CC(=O)O.CC(=O)O.CC/N=C(\\NCC)NCCCC[C@H](NC(=O)[C@H](CC(C)C)NC(=O)[C@@H](CCCCN/C(=N/CC)NCC)NC(=O)[C@H](Cc1ccc(O)cc1)NC(=O)[C@H](CO)NC(=O)[C@@H](Cc1cccnc1)NC(=O)[C@@H](Cc1ccc(Cl)cc1)NC(=O)[C@@H](Cc1ccc2ccccc2c1)NC(C)=O)C(=O)N1CCC[C@H]1C(=O)N[C@H](C)C(N)=O [GANIRELIX ACETATE] (Ac-[d2Nal][dPhe(4-Cl)][d3Pal]SY[d(hArg(Et2))]L[hArg(Et2)]P[dA]-NH2)"
  DILI_Concern: "No-Dili-Concern"
- compound: "Cc1ncc2n1-c1ccc(Cl)cc1C(c1ccccc1F)=NC2"
  DILI_Concern: "No-Dili-Concern"

Give the value of DILI_Concern reported for the following: C[C@H](Cn1cnc2c(N)ncnc21)OCP(=O)(O)O [TENOFOVIR ANHYDROUS]
Less-Dili-Concern
